The values you see were collected from patent US20220235144A1.

Tested on: T1, cSIRPαV1D1 with histidine tag (cynomolgus monkey (Macaca fascicularis), UniProt Q5TFQ8 30-146 (human entry))
T1 construct: also called cynomolgus monkey SIRPαV1D1; not shown: histidine tag
T1 chain: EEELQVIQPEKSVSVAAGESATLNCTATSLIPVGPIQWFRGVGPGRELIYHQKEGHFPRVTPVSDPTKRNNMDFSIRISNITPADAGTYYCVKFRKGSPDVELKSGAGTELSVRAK
Method: SPR (Biacore 3000), IgG captured on anti-human IgG, His-tagged D1 analyte
Value kind: Kd (nM)
Give a bare numeral; the unit nM is implied.

Report measured Kd; entry is Ab1_G2 (antibody, human IgG2, V domains shown) VH: EVQLVESGGGLVKPGGSLRLSCAASGFTFSSYVMSWVRQTPGKGLEWVATISSGGTYTYYPSSVKGRFTLSRDNAKNSLYLQMNSLRAEDTAVYYCASSLTGSSFDYWGQGTTVTVSS VL: DIVLTQSPASLAVSLGERATISCRASESVDLYGTSFMHWYQQKPGQPPKLLIYRASNLESGVPDRFSGSGSRTDFTLTINPLQAEDVATYYCHQSSDELPWTFGGGTKVEIKR
26.9

Others:
Report measured Kd; entry is Ab9_G4 (antibody, human IgG4 S228P, kappa, V domains shown, human IgG4 format) VH: EVQLVESGGGLVKPGGSLRLSCAASGFTFSSYVMSWVRQTPGKGLEWVATISSGGTYTYYPNSVKGRFTLSRDNAKNSLYLQMNSLRAEDTAVYYCVSSMTGSSFDYWGQGTTVTVSS VL: DIVITQSPASLAVSLGERATISCRASESVDSYGNSFMHWYQQKPGQPPKLLIYRASNLESGVPDRFSGSGSRTDFTLTINPLQAEDVATYYCHQSSEQLPWTFGGGTKVEIKR
183

Report measured Kd; entry is Ab1_G4 (antibody, human IgG4 S228P, kappa, V domains shown, human IgG4 format, kappa light chain, made in EXPICHO cells) VH: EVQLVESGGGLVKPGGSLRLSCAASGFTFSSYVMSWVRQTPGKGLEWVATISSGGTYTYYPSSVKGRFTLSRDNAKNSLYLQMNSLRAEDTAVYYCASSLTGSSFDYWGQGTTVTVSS VL: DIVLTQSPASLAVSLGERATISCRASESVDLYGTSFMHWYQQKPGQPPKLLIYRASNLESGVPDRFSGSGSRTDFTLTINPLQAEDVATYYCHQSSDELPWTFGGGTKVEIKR
36.4
